system: Capan-1 pancreatic adenocarcinoma cells; assay: Antiproliferative activity, Capan-1 cells; type: cell-based, human; settings: Homo sapiens, CAPAN-1, 72 h, Capan-1, 72 h incubation
recorded-metric: pIC50
Quick note: pIC50 values are minus log10 of concentrations in mol/L.

[[record]]
compound_string = "Cn1c(-c2ccccc2)nc2cc(-c3ccc(N)cc3)cnc21"
target_or_test_system = "Capan-1 pancreatic adenocarcinoma cells"
test_result = 4.20


--- query ---
Query: pIC50; subject: Oc1ccc(-c2cnc3[nH]c(-c4ccccc4)nc3c2)cc1 5.82

====

test system: HEL 299 cells; settings: read-out: Cytotoxicity (CC50) HEL 299; uninfected HEL 299 cells
recorded-metric: CC50

Query: CC50; subject: CCOC(=O)[C@H]1O[C@@H]1C(=O)N[C@@H](CC(C)C)C(=O)NCCC(C)C [Compound E64d] > 100 µM

====

tested on: Sindbis virus (SINDV); assay: Antiviral CPE assay, SINDV in VeroE6; type: cell-based; details: Sindbis virus, Vero C1008; VeroE6 host cells
pEC50: −log10 of the molar value.
Entries annotated with measured pEC50

Query: pEC50; subject: CCN(CC)CCCC(C)Nc1ccnc2cc(Cl)ccc12 (stereo not drawn) 5.10

Query: pEC50; subject: COc1c(C)c2c(c(O)c1C/C=C(\C)CCC(=O)O)C(=O)OC2 < 4.00

Query: pEC50; subject: N#Cc1ccc(-c2cnc3[nH]c(-c4ccccc4)nc3c2)cc1 < 4.30

====

test: in vitro; conditions: human
recorded-metric: CC50

[[record]]
compound_string = "CCC(CC)COC(=O)[C@H](C)N[P@](=O)(OC[C@H]1O[C@@](C#N)(c2ccc3c(N)ncnn23)[C@H](O)[C@@H]1O)Oc1ccccc1"
test_result = "> 10 µM"


--- query ---
Query: CC50; subject: N#Cc1ccc(-c2cnc3[nH]c(-c4ccccc4)nc3c2)cc1 > 50 µM

====

test: in vitro; conditions: African green monkey
recorded-metric: CC50

[[record]]
molecule = "NC(=O)c1ncn([C@@H]2O[C@H](CO)[C@@H](O)[C@H]2O)n1"
recorded_metric = "CC50"
test_result = "> 250 µM"

[[record]]
molecule = "CCN(CC)CCCC(C)Nc1ccnc2cc(Cl)ccc12 (stereo not shown)"
recorded_metric = "CC50"
test_result = "55.8 µM"

[[record]]
molecule = "N#Cc1ccc(-c2cnc3[nH]c(-c4ccccc4)nc3c2)cc1"
recorded_metric = "CC50"
test_result = "> 50 µM"


--- query ---
Query: CC50; subject: COc1c(C)c2c(c(O)c1C/C=C(\C)CCC(=O)O)C(=O)OC2 > 100 µM

====

Entries annotated with measured pIC50
test system: LN-229 glioblastoma cells; assay: Antiproliferative activity, LN-229 cells; format: cell-based, human; details: LN-229, 72 h incubation
Quick note: pIC50 values are minus log10 of concentrations in mol/L.

[[record]]
compound_string = "Cn1c(-c2ccccc2)nc2cc(-c3ccc(N)cc3)cnc21"
target_or_test_system = "LN-229 glioblastoma cells"
test_result = 4.23


--- query ---
Query: pIC50; subject: Nc1ccc(-c2cnc3[nH]c(-c4ccccc4)nc3c2)cc1 4.20

====

system: yellow fever virus (YFV); assay: microbe, parasite or virus in culture; format: cell-based; conditions: VeroE6 host cells; read-out: Antiviral Activity (EC50) YFV VeroE6
pEC50: −log10 of the molar value.
recorded-metric: pEC50

Value wanted: pEC50 (yellow fever virus (YFV)) of entry CCOC(=O)[C@H]1O[C@@H]1C(=O)N[C@@H](CC(C)C)C(=O)NCCC(C)C [Compound E64d] < 4.00

Sourced from paper PMC10608878
